experimentalTarget: T1, Human Claudin-18.2 protein (human, UniProt P56856-2 1-261, limits assumed)
T1 construct: Soluble analyte injected over captured antibodies in SPR
protocolNotes: SPR (Biacore 8K), antibody captured on Protein A, Claudin-18.2 protein as analyte
endpointName: koff (s⁻¹)
Give bare numbers, in s⁻¹.

Quick request: koff for each listed item, please.
1. 2-mIgG2aFc (Fc fusion, Fusion antibody anti-Claudin18.2 VHH-mIgG2aFc; also called 2-mIgG Fc; 2-mlgG2a Fc; not shown: mouse IgG2a Fc (mIgG2aFc)) EVQLVESGGGLVQPGGSLRLSCAASGNILSINYMGWYRQAPGKERELVATITRGGSTNYQGNLKGRFIISGDNTKDTVYLQMNNLQPEDTAVYYCYFRINFGILGGLRDYWGQGTQVTVSS
2. 5H1-mIgG Fc (Fc fusion, Subclass printed only as mIgG Fc for this one; also called 5H1-mlgG Fc; H1-mlgG Fc; not shown: mouse IgG Fc (printed mIgG Fc)) QVQLVESGGGLVQTGGSLRLSCAASDSTFSSYIMGWVRQAPGKGLEWVAGITWSGGIKDYADSVKGRFTIARDNAKNTVYLQMNSLKPEDAAIYYCAANAIQLTRRSGDYAYWGQGTQVTVSS
3. 5-mIgG2aFc (Fc fusion, Fusion antibody anti-Claudin18.2 VHH-mIgG2aFc; also called 5-mIgG Fc; 5-mlgG2a Fc; not shown: mouse IgG2a Fc (mIgG2aFc)) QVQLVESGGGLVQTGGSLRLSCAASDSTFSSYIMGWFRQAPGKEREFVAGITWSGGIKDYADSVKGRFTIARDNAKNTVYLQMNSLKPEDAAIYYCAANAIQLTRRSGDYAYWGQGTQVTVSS
4. 5H2-mIgG2a Fc (Fc fusion, also called 5H2-mIgG Fc; 5H2-mlgG2a Fc; not shown: mouse IgG2a Fc) QVQLVESGGGLVQPGGSLRLSCAASDSTFSSYIMGWFRQAPGKGLEFVAGITWSGGIKDYADSVKGRFTIARDNSKNTLYLQMNSLRAEDAAVYYCAANAIQLTRRSGDYAYWGQGTLVTVSS

[reply]
0.00052
0.000552
0.000373
0.000417
